Each record here notes measured log10 of EC50.
target: human M1 (Homo sapiens); construct: expressed in transfected cells; host or cells: CHO cells; assay: M1 PAM assay (FLIPR intracellular calcium), human M1; assay type: cell-based; conditions: CHO human M1 cells, FLIPR Ca2+, with EC20 of acetylcholine; first value of the cell; read-out: hM1 EC50
Sequence (P11229 whole entry): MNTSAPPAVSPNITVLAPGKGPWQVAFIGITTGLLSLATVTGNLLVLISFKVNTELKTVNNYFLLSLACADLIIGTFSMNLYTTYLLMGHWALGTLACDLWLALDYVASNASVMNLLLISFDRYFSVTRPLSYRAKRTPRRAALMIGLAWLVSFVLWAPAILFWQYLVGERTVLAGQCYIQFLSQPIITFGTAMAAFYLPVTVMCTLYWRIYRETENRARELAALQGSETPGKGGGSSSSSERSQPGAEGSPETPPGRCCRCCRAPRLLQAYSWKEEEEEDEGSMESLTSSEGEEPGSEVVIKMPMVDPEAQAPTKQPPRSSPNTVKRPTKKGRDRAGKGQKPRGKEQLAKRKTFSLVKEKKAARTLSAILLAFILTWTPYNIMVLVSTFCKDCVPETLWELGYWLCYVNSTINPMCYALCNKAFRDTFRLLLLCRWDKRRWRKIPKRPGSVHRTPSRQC
quantity-measured: log10 of EC50 (log10 of the value in nM)

molecule: CN(C)C(=O)c1cccc(Cn2cc(C(=O)N[C@H]3CCCC[C@@H]3O)c3c(F)cccc32)c1 [Example 90]
log10 of EC50: 2.53
--
molecule: CNC(=O)c1ccc(Cn2cc(C(=O)NC3CCCC(F)(F)C3)c3c(F)cccc32)cc1 (stereo not drawn) [Example 118]
log10 of EC50: 0.95
--
molecule: CNC(=O)c1ccc(Cn2cc(C(=O)NC3CCC(F)(F)CC3)c3c(F)cccc32)cc1 [Example 117]
log10 of EC50: 1.15
--
molecule: O=C(N[C@H]1CCOC[C@@H]1O)c1cn(Cc2ccc(-n3cncn3)nc2)c2cccc(F)c12 [Example 78]
log10 of EC50: 2.72
--
molecule: Cn1cc(-c2ccc(Cn3cc(C(=O)NC4CCOCC4)c4c(F)cccc43)cc2)cn1 [Example 65]
log10 of EC50: 1.51
--
molecule: Cn1cc(-c2ccc(Cn3cc(C(=O)NC4CCC4)c4c(F)cccc43)cc2)cn1 [Example 11]
log10 of EC50: 2.62

----------
target: ratM1 (Rattus norvegicus); construct: expressed in transfected cells; host or cells: CHO cells (stated generally for the assay, not specifically for rat M1); test: M1 PAM assay (FLIPR intracellular calcium), rat M1; type: cell-based; details: rat M1, FLIPR Ca2+; second value of the cell; read-out: ratM1 EC50
pEC50: −log10 of the molar value.
Entry flag: 1.0 if pEC50 reaches 7; 0.0 if it does not.

compound: CNC(=O)c1ccc(Cn2cc(C(=O)NC3CCS(=O)(=O)CC3)c3c(F)cccc32)cc1 [Example 125]
assigned-class: 0.0

compound: CNC(=O)c1ccc(Cn2cc(C(=O)N[C@H]3CCCC[C@@H]3O)c3c(F)cccc32)cc1F [Example 88]
assigned-class: 1.0

compound: Cn1cc(-c2ccc(Cn3cc(C(=O)N[C@H]4CCCC(F)(F)[C@@H]4O)c4c(F)cccc43)cc2)cn1 [Example 101]
assigned-class: 1.0

compound: Cn1cc(-c2ccc(Cn3cc(C(=O)N[C@H]4CCOC[C@@H]4O)c4c(F)ccc(C5CC5)c43)cc2)cn1 [Example 106]
assigned-class: 0.0

compound: Cn1cc(-c2ccc(Cn3cc(C(=O)NCC4COC4)c4c(F)cccc43)cc2)cn1 [Example 13]
assigned-class: 0.0

compound: NC(=O)c1ccc(Cn2cc(C(=O)N[C@H]3CCCC[C@@H]3O)c3c(F)cccc32)cc1 [Example 77]
assigned-class: 1.0

compound: Cn1cc(-c2ccc(Cn3cc(C(=O)NC4CCCOC4)c4c(F)cccc43)cc2)cn1 (centres unmarked) [Example 12]
assigned-class: 0.0

compound: Cc1ccc(F)c2c(C(=O)NC3CCCOC3)cn(Cc3ccc(-c4cnn(C)c4)cc3)c12 (centres unmarked) [Example 48]
assigned-class: 0.0

compound: Cn1cc(-c2ccc(Cn3cc(C(=O)N[C@H]4COCC[C@@H]4O)c4c(F)cccc43)c(F)c2)cn1 [Example 22]
assigned-class: 1.0

compound: Cc1cn(-c2ccc(Cn3cc(C(=O)N[C@H]4CCCC[C@@H]4O)c4c(F)cccc43)cc2)cn1 [Example 36]
assigned-class: 1.0

compound: O=C(N[C@H]1CCCC[C@@H]1O)c1cn(Cc2ccc(-n3ccnc3)nc2)c2cccc(F)c12 [Example 142]
assigned-class: 0.0

----------
Molecular target: ratM1 (Rattus norvegicus)
Construct: expressed in transfected cells; host or cells: CHO cells (stated generally for the assay, not specifically for rat M1)
Sequence (P08482 1-460): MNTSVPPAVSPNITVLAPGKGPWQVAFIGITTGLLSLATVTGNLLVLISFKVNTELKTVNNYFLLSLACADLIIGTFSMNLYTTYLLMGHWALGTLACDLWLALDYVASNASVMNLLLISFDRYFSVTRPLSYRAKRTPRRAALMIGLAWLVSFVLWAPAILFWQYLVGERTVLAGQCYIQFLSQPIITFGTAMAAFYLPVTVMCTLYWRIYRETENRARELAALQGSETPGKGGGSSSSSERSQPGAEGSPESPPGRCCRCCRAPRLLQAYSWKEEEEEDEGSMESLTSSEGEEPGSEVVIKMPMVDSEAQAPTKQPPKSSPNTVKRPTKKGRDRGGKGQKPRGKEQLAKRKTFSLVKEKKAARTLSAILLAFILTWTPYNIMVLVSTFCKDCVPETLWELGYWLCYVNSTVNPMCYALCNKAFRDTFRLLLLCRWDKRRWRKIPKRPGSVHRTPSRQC
Assay: M1 PAM assay (FLIPR intracellular calcium), rat M1
Format: cell-based
Conditions: rat M1, FLIPR Ca2+; second value of the cell; read-out: ratM1 EC50

molecule: O=C(N[C@H]1CCCC[C@@H]1O)c1cn(Cc2ccc(-c3cnco3)cc2)c2cccc(F)c12
EC50 [nM]: 34

molecule: CNC(=O)c1ccc(Cn2cc(C(=O)NC3CCC3)c3c(F)cccc32)cc1
EC50 [nM]: 168

molecule: CNC(=O)c1ccc(Cn2cc(C(=O)NC3CCCCC3F)c3c(F)cccc32)cc1 (stereo not drawn)
EC50 [nM]: 17

molecule: Cn1cc(-c2ccc(Cn3cc(C(=O)N[C@H]4CCOC[C@@H]4O)c4c(F)cccc43)c(F)c2)cn1 (mixture of isomers) [Example 6]
EC50 [nM]: 147

molecule: O=C(N[C@H]1CCOC[C@@H]1O)c1cn(CC2CCN(c3ccccn3)CC2)c2cccc(F)c12
EC50 [nM]: 428

molecule: Cc1cn(-c2ccc(Cn3cc(C(=O)NC4CCOCC4)c4c(F)cccc43)cc2)cn1
EC50 [nM]: 183

molecule: Cc1nc(-c2ccc(Cn3cc(C(=O)N[C@H]4CCOC[C@@H]4O)c4c(F)cccc43)cc2)no1
EC50 [nM]: 160

molecule: O=C(N[C@H]1CCCC[C@@H]1O)c1cn(Cc2ccc(-c3nccs3)cn2)c2cccc(F)c12
EC50 [nM]: 453

molecule: CNC(=O)c1ccc(Cn2cc(C(=O)NC3CCOC(C)C3)c3c(F)cccc32)cc1 (stereo not drawn)
EC50 [nM]: 26

molecule: O=C(N[C@H]1CCCC[C@@H]1O)c1cn(Cc2ccc(-c3ncccn3)cc2)c2cccc(F)c12
EC50 [nM]: 384

molecule: O=C(N[C@H]1CCOC[C@@H]1O)c1cn(Cc2ccc(-c3nccs3)cc2)c2cccc(F)c12
EC50 [nM]: 25.6

molecule: Cc1ccc(F)c2c(C(=O)N[C@H]3CCCC[C@@H]3O)cn(Cc3ccc(-c4cnn(C)c4)cc3)c12
EC50 [nM]: 22.2

molecule: Cc1ccn(-c2ccc(Cn3cc(C(=O)N[C@H]4CCCC[C@@H]4O)c4c(F)c(F)ccc43)cc2)n1
EC50 [nM]: 515

molecule: CNC(=O)c1ccc(Cn2cc(C(=O)NC3CCOCC3)c3c(F)cccc32)cn1
EC50 [nM]: 323

molecule: CNC(=O)c1ccc(Cn2cc(C(=O)NC3CCCCCC3)c3c(F)cccc32)cc1
EC50 [nM]: 28

molecule: NC(=O)Cc1ccc(Cn2cc(C(=O)N[C@H]3CCCC[C@@H]3O)c3c(F)cccc32)cc1
EC50 [nM]: 263

molecule: CNC(=O)c1ccc(Cn2cc(CC(=O)N[C@H]3CCOC[C@@H]3O)c3c(F)cccc32)cc1
EC50 [nM]: 134

molecule: Cn1cc(-c2ccc(Cn3cc(C(=O)N[C@@H]4CCCC[C@H]4O)c4c(F)cccc43)c(F)c2)cn1
EC50 [nM]: 208

molecule: CNC(=O)c1ccc(Cn2cc(C(=O)NCC3CC3)c3c(F)cccc32)cc1
EC50 [nM]: 320

molecule: CNC(=O)c1ccc(Cn2cc(C(=O)NC3CC3)c3c(F)cccc32)cc1
EC50 [nM]: 408

molecule: Cn1cc(-c2ccc(Cn3cc(C(=O)N[C@H]4CCCC[C@@]4(C)O)c4c(F)cccc43)c(F)c2)cn1 (racemic)
EC50 [nM]: 25.8

molecule: Cc1ccn(-c2ccc(Cn3cc(C(=O)N[C@H]4CCCC[C@@H]4O)c4c(F)cccc43)cc2)n1
EC50 [nM]: 13.9

molecule: CNC(=O)c1ccc(Cn2cc(C(=O)NC3CCOCC3)c3c(F)cccc32)c(F)c1
EC50 [nM]: 88

molecule: Cc1cn(-c2ccc(Cn3cc(C(=O)N[C@H]4CCOC[C@@H]4O)c4c(F)cccc43)cc2)cn1 (single isomer, unassigned)
EC50 [nM]: 11.2

----------
target: ratM1 (Rattus norvegicus, UniProt P08482); construct: expressed in transfected cells; host or cells: CHO cells (stated generally for the assay, not specifically for rat M1); assay: M1 PAM assay (FLIPR intracellular calcium), rat M1; type: cell-based; settings: rat M1, FLIPR Ca2+; second value of the cell; read-out: ratM1 EC50
Each record here notes measured EC50.

compound: Cn1cc(-c2ccc(Cn3cc(C(=O)N[C@H]4CCC[C@H]4O)c4c(F)cccc43)c(F)c2)cn1
EC50, nM: 84.5
--
compound: Cn1cc(-c2ccc(Cn3nc(C(=O)N[C@H]4CCCC[C@@H]4O)c4c(F)cccc43)c(F)c2)cn1
EC50, nM: 90.6
--
compound: CNC(=O)c1ccc(Cn2cc(C(=O)NC3CCOCC3)c3c(F)cccc32)cc1F
EC50, nM: 82
--
compound: Cc1ccc(F)c2c(C(=O)N[C@H]3CCCC[C@@H]3O)cn(Cc3ccc(-c4cnn(C)c4)cc3F)c12
EC50, nM: 74.1
--
compound: Cn1cc(-c2ccc(Cn3cc(C(=O)N[C@H]4CCCC[C@@H]4O)c4c(F)c(F)c(F)c(F)c43)cn2)cn1
EC50, nM: 80.7
--
compound: CNC(=O)c1ccc(Cn2cc(C(=O)NC3CCCOC3)c3c(F)cccc32)cc1 (stereo not drawn)
EC50, nM: 154
